Documented koff across a set of binders
TESTED TARGET: T1, human CD3 Delta/Epsilon Fc fusion protein (human, UniProt P04234 22-105; P07766 23-126)
T1 construct: Construct limits and Fc are not described; also called Human CD3 Delta-Epsilon Fc ("Knobs-into-hole"-KnH)
T1 sequence (P04234 22-105, stated change not applied, chain 1 of 2): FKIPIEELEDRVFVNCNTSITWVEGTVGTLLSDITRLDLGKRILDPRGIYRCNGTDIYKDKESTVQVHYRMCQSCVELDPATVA
T1 sequence (P07766 23-126, stated change not applied, chain 2 of 2): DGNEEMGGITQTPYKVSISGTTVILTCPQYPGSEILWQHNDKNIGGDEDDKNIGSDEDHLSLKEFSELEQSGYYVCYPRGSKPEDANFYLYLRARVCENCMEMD
TEST PROTOCOL: Octet (bio-layer interferometry), bivalent kdis
Reply with just the number (in s⁻¹).

The cases that follow already have their koff on record.
- 299F6 1.1 (antibody, human IgG1, kappa, V domains shown, sheet: mAb '299F6 1.1', format 'humanized'; also called 299F6 humanized) VH: EVQLVESGGGLVQPGGSLRLSCAASGFTISSNAMSWVRQAPGKGLEWIGVITGRDITYYANWAKGRFTISRDNSKNTLYLQMNSLRAEDTAVYYCARDGGSSAITSNNIWGQGTLVTVSS VL: DIQMTQSPSTLSASVGDRVTITCQASESISSWLAWYQQKPGKAPKLLIYEASKLASGVPSRFSGSGSGTEFTLTISSLQPDDFATYYCQGYFYFISRSYVNAFGGGTKVEIKR: 0.0006
- 295E9 chimeric rabbit/human IgG antibody (antibody, V domains shown) VH: QSLEESGGRLVTPGTPLTLTCTVSGIDLSSNAMSWVRQAPGKGLEWIGVITGRDINYYASWAKGRFTISKTSSTTVDLKMTSLTAEDSATYFCARDGGSSAITSKNIWGPGTLVTVSS VL: DVVMTQTPASVEAAVGGTVTINCQASESISSWLAWYQQRPGQPPKLLIYEASKLASGVPSRFKGSGSGTEFTLTISDLECADAATYYCQGYFYFISRSYVNAFGGGTEVVVKR: 0.0052

We now examine a further binder.
Q: Recorded koff for 480C8 chimeric rabbit/human IgG antibody (antibody, V domains shown, also called 48008) VH: QSLEESGGRLVTPGTPLTLTCTVSGIDLSSNAMSWVRQAPGKGLEWIGVITGRDITYYASWAKGRFTISKTSSTTVDLKMTSLTAEDSATYFCARDGGSSAINSKNIWGQGTLVTVSS VL: DVVMTQTPSSVSAAVGGTVTINCQASESISSWLAWYQQKPGQPPKLLIYEASKLASGVPSRFSGSGSGTEFTLTISDLECADAATYYCQGYFYFISRTYVNAFGGGTEVEFKR , please?
A: 0.00042
